- measurementTarget: Acyl-homoserine lactone acylase PvdQ [A190E,F674L] (Pseudomonas aeruginosa, UniProt Q9I194, A190E/F674L)
- Sequence (Q9I194 whole entry, looked up, stated change not applied): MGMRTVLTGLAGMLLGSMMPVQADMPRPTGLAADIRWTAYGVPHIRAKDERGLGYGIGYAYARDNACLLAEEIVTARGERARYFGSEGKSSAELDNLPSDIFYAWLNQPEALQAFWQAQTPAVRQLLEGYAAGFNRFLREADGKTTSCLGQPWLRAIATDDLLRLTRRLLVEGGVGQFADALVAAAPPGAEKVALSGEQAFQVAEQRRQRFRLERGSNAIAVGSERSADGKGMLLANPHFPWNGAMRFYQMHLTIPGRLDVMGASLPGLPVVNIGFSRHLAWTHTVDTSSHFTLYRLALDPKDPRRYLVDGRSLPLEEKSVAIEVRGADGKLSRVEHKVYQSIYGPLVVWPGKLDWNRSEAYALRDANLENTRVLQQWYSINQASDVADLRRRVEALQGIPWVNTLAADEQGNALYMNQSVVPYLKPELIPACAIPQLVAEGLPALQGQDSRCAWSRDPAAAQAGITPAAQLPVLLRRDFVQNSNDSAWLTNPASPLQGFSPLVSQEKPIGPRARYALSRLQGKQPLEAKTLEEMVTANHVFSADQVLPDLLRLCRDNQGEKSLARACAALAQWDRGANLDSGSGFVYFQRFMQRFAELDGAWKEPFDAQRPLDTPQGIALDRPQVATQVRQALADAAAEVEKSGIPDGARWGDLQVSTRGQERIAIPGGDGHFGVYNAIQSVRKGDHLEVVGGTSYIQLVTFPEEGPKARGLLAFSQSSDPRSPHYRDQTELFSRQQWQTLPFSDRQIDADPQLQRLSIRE
- experimentDescription: PvdQ IC50 Assay
- Description: The assay was performed with nine compound concentrations that ranged from 3 nM to 19.5 µM with PvdQ concentration of 20 nM. The positive control, isopropyl dodecylfluorophosphonate (IDFP), was added in 24 selective wells to a final concentration of 200 µM. The assay plates were initially read at time = 0 and then incubated for 60 min at RT. The plates were read again at time = 60 min.
metricName: pIC50
Quick note: pIC50 means taking -log10 of the concentration in moles per liter.

Worked cases, answers included:
Measured pIC50 of N#CC1c2ccc(Cl)cc2CCc2cccnc21 (stereo not drawn) : 5.04

Measured pIC50 of N#Cc1cccc(C(C#N)c2ccc(F)cc2)n1 (stereo not drawn) : 6.89

More entries:
Measured pIC50 of N#CC(c1ccc(C(F)(F)F)c(Cl)n1)c1ccc(Cl)cc1Cl (stereo not drawn) : 6.01
